B1: KAT8 regulatory NSL complex subunit 2, residues 28 to 91; numbered along this chain, Q9H9L4 (parent)
chain: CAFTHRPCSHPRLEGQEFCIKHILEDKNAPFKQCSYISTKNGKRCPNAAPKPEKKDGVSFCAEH

Variants of: B1
MEASUREMENT DESCRIPTION: abundance fitness (aPCA) (normalised: wild type 0, dead -1); higher = more abundant; growth selection in yeast, the domain comes from the species named
ASSAY CONDITIONS: Homo sapiens
RECORDED METRIC: abundance fitness
Give the figure by itself; no unit, no explanation.

Name the recorded abundance fitness for T39E . 0.003

Endpoint output: abundance fitness of F18M . Value? -0.196

Tell me the measured abundance fitness of C45R , please. -0.635

So what's the measured abundance fitness for this one? F3C -0.14

If you can, please state the reported abundance fitness value of H10W . -0.127

// abundance fitness lookup, key: N41C -0.161

What measured abundance fitness goes with N28A ? -0.118

Query: abundance fitness; subject: T39N -0.049

Data request, read-out abundance fitness, for G42A -0.053

Need abundance fitness of Q33R , thanks. -0.081

Requested field: abundance fitness. Item: C34M -0.542

What abundance fitness value was documented for this variant, P52H ? -0.133

Any idea what abundance fitness was measured for R6Q ? -0.072

Consider the variant shown here: Q33M What is its recorded abundance fitness? -0.062

Give the measured abundance fitness of C8D . -0.646

So what's the measured abundance fitness for this one? V58I -0.048

Any idea what its abundance fitness is? The variant is H22Y -1.07

Requested read-out: abundance fitness. Entry: I23L -0.143

I have this variant here, H5C , and I need its recorded abundance fitness. -0.112

// abundance fitness lookup, key: K21C -0.119

Please give the measured abundance fitness for this variant: C45A -0.459

Please give the measured abundance fitness for this variant: K43L -0.101

Look up abundance fitness: D26Y -0.223

Looking for the measured abundance fitness of P30Y , can you help? -0.335

Look up abundance fitness for this variant: E25V -0.069

Param item = D26K ; retrieve measured abundance fitness. -0.177

Fill in the blank: the reported abundance fitness of P7C is ____. -0.201

// query abundance fitness value for entry P11G -0.133

Any idea what its abundance fitness is? The variant is A29S -0.048

Using the record for Q16D , report its abundance fitness. -0.408

Fill in: abundance fitness of C19F is ___ -1.16

Quick one: abundance fitness of G57D ? -0.138

Consider the variant shown here: H64A What is its recorded abundance fitness? -0.582

Given the entry A49W , report its measured abundance fitness. -0.315

Reported abundance fitness, variant N47E : ____ -0.049

If you can, please state the reported abundance fitness value of R12Y . -0.787

Returns the measured abundance fitness for the input variant. Input: H64I -1.02

# abundance fitness lookup, item F31W -0.116

Consider the variant E17F and give its measured abundance fitness. -0.19

# abundance fitness lookup, item P52Q -0.061

What value of abundance fitness has been reported for the following variant? K51H -0.166

abundance fitness lookup needed for S35W , thanks. -0.169

# get_value(readout='abundance fitness', item= C61K ) -0.436

Which abundance fitness is listed for K43W ? -0.141

Which value of abundance fitness has been reported for P30S in the records? -0.136

Return reported abundance fitness; argument: A49V 0.076
